study-target: IRAK4 (Homo sapiens (Human))
assay-overview: IRAK4 Inhibition Assay
Format: biochemical
measurement-context: ATP 500 μM; IRAK4 0.6 nM; read-out: IRAK4 IC50
Experimental: The assays were performed in U-bottom 384-well plates. […] The reaction was initiated by the combination of IRAK4 with substrates and test compounds. The reaction mixture was incubated at room temperature for 60 min. and terminated by adding 45 μL of 35 mM EDTA to each sample. The reaction mixture was analyzed on the Caliper LABCHIP® 3000 (Caliper, Hopkinton, Mass.) by electrophoretic separation of the fluorescent substrate and phosphorylated product.
Consider the following compounds; for each one, report its IC50.
Answers are plain numbers, in nM.

# annotated cases, reported IC50 shown
compound: CC(C)NC(=O)[C@H](F)CNc1cc(-n2ccc3cc(C#N)cnc32)ncc1C(=O)NC[C@@H](F)C(C)(C)O
IC50 [nM]: 9.9
//
compound: CC(C)CC(=O)NCc1cnc2c(ccn2-c2cc(NC(C)C)c(C(=O)NC[C@@H](F)C(C)(C)O)cn2)c1
IC50 [nM]: 2.3

For every listed record, write down its IC50.
1. CC(C)(O)[C@H](F)CNC(=O)c1cnc(-n2ccc3cc(C#N)cnc32)cc1NC1CCC(NCC(F)(F)F)C1 (stereo partly shown) [Example 489]
2. CC(C)(O)[C@H]1CC[C@H](NC(=O)c2cnc(-n3ccc4cc(C#N)cnc43)cc2NC2CC2)CC1
3. CC(C)Nc1cc(-n2ccc3cc(CNC(=O)Cc4ccccc4)cnc32)ncc1C(=O)NC[C@@H](F)C(C)(C)O
4. CC(C)(O)[C@H](F)CNC(=O)c1cnc(-n2ncc3cc(C#N)cnc32)cc1NC12CCC(O)(CC1)C2

**A:**
1. 4.3
2. 1.5
3. 2.2
4. 2.8

Reported IC50 of CC(C)(O)[C@H](F)CNC(=O)c1cnc(-n2cnc3cc(C#N)cnc32)cc1Nc1cnn(C(F)F)c1 : 5.7

* * *

study-target: IRAK4 (Homo sapiens (Human))
assay-overview: IRAK4 Inhibition Assay
Format: biochemical
measurement-context: IRAK4 Inhibition Assay; ATP 500 μM; read-out: IRAK4 IC50
measure-name: IC50
Units required after the number.

molecule: CC(C)Nc1cc(-n2ccc3cc(C#N)cnc32)ncc1C(=O)NC[C@@H](F)C(C)NC(C)C (single isomer, unassigned) [Example 129]
IC50: 4.1 nM

Below is a list of molecules. For each, state its recorded IC50.
1. CC(C)Nc1cc(-n2ncc3cc(C#N)cnc32)ncc1C(=O)NC[C@@H](F)C(C)(C)OP(=O)(O)O
2. CCOP(=O)(CCNC(=O)c1cnc(-n2ncc3cc(C#N)cnc32)cc1NC(C)C)OCC
3. CC(C)(O)[C@H](F)CNC(=O)c1cnc(-n2ccc3cc(C#N)cnc32)cc1N[C@H]1CC[C@@](C)(O)CC1
4. CC(C)(O)[C@H](F)CNC(=O)c1cnc(-n2ncc3cc(Cl)cnc32)cc1Nc1cnn(C2CCOCC2)c1

**A:**
14.7 nM
16 nM
1.3 nM
6.5 nM

* * *

What log10 of IC50 was measured for each of the following?
study-target: IRAK4 (Homo sapiens (Human), UniProt Q9NWZ3)
Sequence (Q9NWZ3 whole entry, species assumed): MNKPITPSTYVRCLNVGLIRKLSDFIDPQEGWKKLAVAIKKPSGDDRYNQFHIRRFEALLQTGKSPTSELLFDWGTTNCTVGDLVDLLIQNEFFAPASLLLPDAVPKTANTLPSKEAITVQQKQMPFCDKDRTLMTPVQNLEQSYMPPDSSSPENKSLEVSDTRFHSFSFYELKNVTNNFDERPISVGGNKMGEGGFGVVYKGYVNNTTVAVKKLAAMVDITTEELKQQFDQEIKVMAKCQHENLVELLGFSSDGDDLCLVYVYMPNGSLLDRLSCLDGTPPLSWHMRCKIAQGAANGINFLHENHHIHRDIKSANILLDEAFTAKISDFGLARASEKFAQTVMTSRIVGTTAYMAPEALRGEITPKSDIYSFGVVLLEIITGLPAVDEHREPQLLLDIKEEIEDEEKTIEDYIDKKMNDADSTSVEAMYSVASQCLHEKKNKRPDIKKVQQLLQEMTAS
assay-overview: IRAK4 Inhibition Assay
Assay type: biochemical
measurement-context: ATP 500 μM; IRAK4 0.6 nM; read-out: IRAK4 IC50
Field: value | Transform: log10 | Quantity: IC50 | Unit: nM

Here's what some known entries look like.
molecule: CC(CCF)Nc1cc(-n2ccc3cc(C#N)cnc32)ncc1C(=O)NC[C@@H](F)C(C)(C)O (single isomer, unassigned) [Example 426]
log10 of IC50: 0.20
//
molecule: CC(C)(O)[C@H]1CC[C@H](NC(=O)c2cnc(-n3ccc4cc(F)cnc43)cc2NC2CC2)CC1
log10 of IC50: 0.66
//
molecule: CCCNc1cc(-n2ncc3cc(C#N)c(N)nc32)ncc1C(=O)NC[C@@H](F)C(C)(C)O
log10 of IC50: 0.41

Report log10 of IC50 for each item below.
1. CC(C)(O)[C@H](F)CNC(=O)c1cnc(-n2ccc3cc(C#N)cnc32)cc1N[C@@H]1CCOC1
2. CC(C)(O)[C@H](F)CNC(=O)c1cnc(-n2ncc3cc(C#N)cnc32)cc1NCCNS(C)(=O)=O
3. CC(C)(O)[C@H](F)CNC(=O)c1cnc(-n2ccc3cc(C#N)cnc32)cc1NCC1CCOCC1
4. CC(C)(F)CCNc1cc(-n2ncc3cc(C#N)c(N)nc32)ncc1C(=O)NC[C@@H](F)C(C)(C)O

**A:**
1: 0.28; 2: 0.99; 3: 1.24; 4: 0.68

* * *

Tested on: TLR2 induced IL-6 in peripheral blood mononuclear cells (PBMCs)
assay-overview: PBMC TLR2 Induced IL-6 Assay
Format: cell-based, human
measurement-context: Homo sapiens, PBMC, PBMC TLR2 Induced IL-6 Assay; lipoteichoic acid stimulation, IL-6 by ELISA; read-out: Cell IC50
measure-name: pIC50
Give bare numbers, as −log10 of the molar value.

compound: CC(C)Nc1cc(-n2ncc3cc(C#N)cnc32)ncc1C(=O)NCCC1(O)CCC(C)(O)CC1 (stereo not shown)
pIC50: 6.60

compound: CC(C)(O)[C@H](F)CNC(=O)c1cnc(-n2ccc3cc(C#N)cnc32)cc1NCC(F)(F)F
pIC50: 7.02

compound: CC(C)Nc1cc(-n2ncc3cc(C#N)cnc32)ncc1C(=O)N[C@@H]1CC[C@@H](C(C)(C)O)OC1
pIC50: 6.39

compound: CC(CF)Nc1cc(-n2ccc3cc(C#N)cnc32)ncc1C(=O)NC[C@@H](F)C(C)(C)O (stereo partly shown)
pIC50: 7.20

compound: CCS(=O)(=O)N1CCC(NC(=O)c2cnc(-n3ncc4cc(C#N)cnc43)cc2NC(C)C)CC1
pIC50: 6.44

Provide the reported pIC50 of each entry below, same order.
1. CC(C)Nc1cc(-n2ncc3cc(C#N)cnc32)ncc1C(=O)Nc1cnn(C2CCOCC2)c1
2. CC(C)Nc1cc(-n2ccc3cncnc32)ncc1C(=O)NC[C@@H](F)C(C)(C)O
3. CC(F)(F)Cn1cc(Nc2cc(-n3ncc4cc(C#N)cnc43)ncc2C(=O)NC[C@@H](F)C(C)(C)O)cn1
4. CC(C)Nc1cc(-n2ncc3cc(C#N)cnc32)ncc1C(=O)NC[C@@H](F)C(C)C
5. CCNC(=O)c1cnc(-n2ncc3cc(C#N)cnc32)cc1Nc1cnn(CC(F)F)c1

**A:**
1: 6.75; 2: 6.82; 3: 7.18; 4: 6.43; 5: 6.60

For each of the items listed, what is its pIC50?
1. CC(=O)N[C@H]1CC[C@H](NC(=O)c2cnc(-n3ccc4cncnc43)cc2NC2CCOCC2)CC1
2. CC(C)Nc1cc(-n2ncc3cc(C#N)cnc32)ncc1C(=O)Nc1cnn(CC(F)F)c1
3. CC(C)(O)[C@H](F)CNC(=O)c1cnc(-n2ncc3cc(C#N)cnc32)cc1Nc1cnn(CCC#N)c1
4. CC(C)Nc1cc(-n2ccc3cc(Cl)cnc32)ncc1C(=O)NC[C@@H](F)C(C)(C)O
5. CC(C)Nc1cc(-n2ncc3cc(C#N)cnc32)ncc1C(=O)NC1CCN(C(=O)C(C)C)CC1
6. CCCCNC(=O)c1cnc(-n2ncc3cc(C#N)cnc32)cc1N[C@@H](C)CO

**A:**
1. 6.11
2. 6.70
3. 6.46
4. 6.40
5. 7.03
6. 6.72

* * *

study-target: IRAK4 (Homo sapiens (Human), UniProt Q9NWZ3)
assay-overview: IRAK4 Inhibition Assay
Assay type: biochemical
measurement-context: IRAK4 IC50
measure-name: IC50 (nM)
Answers are plain numbers, in nM.

Kindly note: IRAK4 (Homo sapiens (Human), UniProt Q9NWZ3), CC(C)(O)[C@H](F)CNC(=O)c1cnc(-n2ccc3cc(C#N)cnc32)cc1NC1CCCC(F)(F)C1O (single isomer, unassigned) [Example 112] , IC50 value reported: 4.4

* * *

study-target: IRAK4 (Homo sapiens (Human), UniProt Q9NWZ3)
assay-overview: IRAK4 Inhibition Assay
Format: biochemical
measurement-context: IRAK4 Inhibition Assay; ATP 500 μM; read-out: IRAK4 IC50
measure-name: pIC50
Answers are plain numbers, as −log10 of the molar value.

Observe how each entry below is paired with its result.
compound: CC(C)(O)[C@H](F)CNC(=O)c1cnc(-n2ncc3cc(C#N)cnc32)cc1Nc1cnn(CCC#N)c1 [Example 376]
measure-name: pIC50
recorded-value: 8.68
//
compound: COCCn1cc(Nc2cc(-n3ncc4cc(Cl)cnc43)ncc2C(=O)NC[C@@H](F)C(C)(C)O)cn1 [Example 364]
measure-name: pIC50
recorded-value: 8.59

Please look at the following compound next.
Record CC(C)(O)[C@H](F)CNC(=O)c1cnc(-n2ccc3cc(C#N)cnc32)cc1NC1CCCC1 [Example 10] ; system IRAK4 (Homo sapiens (Human), UniProt Q9NWZ3); pIC50 = 8.74
